# target.entity: human adenosine A2A receptor (Homo sapiens)
# Construct: expressed in transfected cells; host or cells: CHO cells, Semliki Forest virus expression system; washed membrane pellet used
# Sequence (P29274 whole entry): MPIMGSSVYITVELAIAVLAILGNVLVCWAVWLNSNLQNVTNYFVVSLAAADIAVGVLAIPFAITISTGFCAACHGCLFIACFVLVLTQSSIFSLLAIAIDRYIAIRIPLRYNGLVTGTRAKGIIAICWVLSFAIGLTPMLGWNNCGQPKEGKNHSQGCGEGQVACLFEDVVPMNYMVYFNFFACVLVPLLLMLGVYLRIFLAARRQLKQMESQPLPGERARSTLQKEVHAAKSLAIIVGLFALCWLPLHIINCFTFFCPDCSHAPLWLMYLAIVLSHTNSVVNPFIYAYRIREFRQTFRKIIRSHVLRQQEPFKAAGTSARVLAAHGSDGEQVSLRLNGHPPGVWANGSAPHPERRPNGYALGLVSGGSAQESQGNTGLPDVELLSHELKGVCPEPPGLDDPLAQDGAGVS
# procedure.details: [3H]-SCH-58261 binding assay at the human adenosine A2A receptor
# reported.conditions: read-out: pKi value (converted)
Field: label. Allowed values: Condition met (Ki < 2 nM) or Condition not met (Ki >= 2 nM).

Example results:
| compound | target.entity | assigned.class |
| --- | --- | --- |
| CCOCCN(CC)Cc1ccc(C(=O)Nc2nc3c(OC)ccc(N4CCOCC4)c3s2)cc1 [Example 301] | human adenosine A2A receptor (Homo sapiens) | Condition not met |
| COc1ccc(-c2ccccc2)c2sc(NC(=O)c3ccc(CN4CCC(O)CC4)cc3)nc12 [Example 108] | human adenosine A2A receptor (Homo sapiens) | Condition met |
| COc1ccc(-c2ccnc(C)c2)c2sc(NC(=O)c3ccc(C)s3)nc12 [Example 61] | human adenosine A2A receptor (Homo sapiens) | Condition met |
| COc1ccc(N2CCSCC2)c2sc(NC(=O)c3ccccc3)nc12 [Example 317] | human adenosine A2A receptor (Homo sapiens) | Condition not met |
| COc1ccc(-c2ccccc2)c2sc(NC(=O)c3ccc(CNCCO)cc3)nc12 [Example 92] | human adenosine A2A receptor (Homo sapiens) | Condition met |
| COc1ccc(-c2ccccc2)c2sc(NC(=O)N3CCOCC3)nc12 [Example 157] | human adenosine A2A receptor (Homo sapiens) | Condition met |

Q: Ki under 2 nM? Item: COc1ccc(-c2ccccc2)c2sc(NC(=O)c3ccc(C)o3)nc12 [Example 10]
Result: Condition met

Q: Ki under 2 nM? Item: COCc1ccc(C(=O)Nc2nc3c(OC)ccc(N4CCOCC4)c3s2)cc1 [Example 315]
Result: Condition not met

Q: Ki under 2 nM? Item: COc1ccc(N2CCOCC2)c2sc(NC(=O)c3ccc(CN4CCN(C)CC4)cc3)nc12 [Example 309]
Result: Condition not met

---

# reported melting point; entries follow

The cases that follow already have their melting point on record.
| compound | reported |
| --- | --- |
| COc1ccc(-c2csc(N3CCOCC3)n2)c2sc(NC(=O)c3ccc(F)cc3)nc12 [Example 216] | 225 to 227 °C |
| COc1ccc(-c2csc(-c3ccc(C)nc3)n2)c2sc(NC(=O)c3ccc(CCl)cc3)nc12 [Example 228] | 230 to 250 °C |

Q: For the compound COc1ccc(-c2ccc(C)s2)c2sc(NC(=O)c3ccc(F)cc3)nc12 [Example 225] , what melting point is on record?
Result: 192 to 196 °C (dec.)

Q: For the compound COc1ccc(-c2cccs2)c2sc(NC(=O)c3ccc(CCl)cc3)nc12 [Example 231] , what melting point is on record?
Result: 183 to 209 °C (dec.)

Q: For the compound COCCN(C)Cc1ccc(C(=O)Nc2nc3c(OC)ccc(-c4cccs4)c3s2)cc1 [Example 240] , what melting point is on record?
Result: 58 to 78 °C

Q: For the compound COc1ccc(-c2csc(-c3ccccn3)n2)c2sc(NC(=O)c3ccc(F)cc3)nc12 [Example 222] , what melting point is on record?
Result: 150 °C (dec.)

Q: For the compound COCCN(C)Cc1ccc(C(=O)Nc2nc3c(OC)ccc(-c4csc(NC(c5ccccc5)(c5ccccc5)c5ccccc5)n4)c3s2)cc1 [Example 236] , what melting point is on record?
Result: 119 to 128 °C

Q: For the compound COc1ccc(-c2csc(NC(c3ccccc3)(c3ccccc3)c3ccccc3)n2)c2sc(NC(=O)c3ccc(CCl)cc3)nc12 [Example 229] , what melting point is on record?
Result: 163 °C (dec.)

Q: For the compound COc1ccc(-c2cccs2)c2sc(NC(=O)N3CCOCC3)nc12 [Example 263] , what melting point is on record?
Result: 175 to 182 °C (dec.)

Q: For the compound COc1ccc(-c2csc(N(C)C)n2)c2sc(NC(=O)c3ccc(F)cc3)nc12 [Example 219] , what melting point is on record?
Result: 218 to 220 °C

Values were extracted from patent US7317007B2.
